Measured values drawn from patent US11396517B1 for this set.

# experimental.system: menin (Homo sapiens, UniProt O00255, T541A)
# Construct: Menin (a.a. 1-610-6×his tag)
# Sequence (O00255 with tags, fused parts or gaps T541A): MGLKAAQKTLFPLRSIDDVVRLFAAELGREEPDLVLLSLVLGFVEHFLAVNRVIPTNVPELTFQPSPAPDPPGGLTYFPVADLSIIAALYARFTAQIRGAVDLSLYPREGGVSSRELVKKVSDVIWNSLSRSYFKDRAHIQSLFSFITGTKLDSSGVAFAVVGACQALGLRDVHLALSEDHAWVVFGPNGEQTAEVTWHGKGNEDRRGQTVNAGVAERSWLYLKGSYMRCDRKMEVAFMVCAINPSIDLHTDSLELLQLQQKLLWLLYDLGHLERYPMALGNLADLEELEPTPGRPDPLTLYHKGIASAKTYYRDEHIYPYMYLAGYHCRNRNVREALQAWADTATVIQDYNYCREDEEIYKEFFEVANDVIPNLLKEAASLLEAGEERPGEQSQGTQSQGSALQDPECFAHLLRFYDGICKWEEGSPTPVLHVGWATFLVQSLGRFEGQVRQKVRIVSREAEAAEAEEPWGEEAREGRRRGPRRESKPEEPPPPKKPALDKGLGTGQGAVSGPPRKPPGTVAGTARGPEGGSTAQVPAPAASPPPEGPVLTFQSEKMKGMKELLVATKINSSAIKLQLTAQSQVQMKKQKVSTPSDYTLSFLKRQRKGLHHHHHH
# assay.text: Menin/MLL homogenous time-resolved fluorescence (HTRF) assay
# Type: binding
# measurement.context: location 2; read-out: (2) location 2 Menin HTRF assay (IC50 (nM))
# Description: 2) Menin/MLL Homogenous Time-Resolved Fluorescence (HTRF) Assay […] Compound potencies were determined by first calculating % inhibition at each compound concentration according to equation 1: % inhibition=((HC−LC)−(HTRF^compound−LC))/(HC−LC))*100 (Eqn 1) […]
// bucketize IC50: low bracket: < 90 nM; middle bracket: ≥ 90 nM and < 200 nM; high bracket: ≥ 200 nM

Query string: Given COc1cc(NC2CC3(CCN(c4ncnc5sc(CC(F)(F)F)cc45)C3)C2)ccn1 (mixture of isomers) [Compound 341] , name the class its IC50 places it in.
Result string: low bracket

Query string: Given CS(=O)(=O)c1ccc(NC2CC3(CCN(c4ncnc5sc(CC(F)(F)F)cc45)C3)C2)cc1 (mixture of isomers) [Compound 342] , name the class its IC50 places it in.
Result string: low bracket

Query string: Given CC1CN(C(=O)c2ccc(NC3CC4(CCN(c5ncnc6sc(CC(F)(F)F)cc56)C4)C3)cc2)CC(C)O1 (single isomer, unassigned) [Compound 405] , name the class its IC50 places it in.
Result string: high bracket

Query string: Given N#CCc1ccc(NC2CCC3(C2)CN(c2nc(N)nc4sc(CC(F)(F)F)cc24)C3)cc1 (racemic) [Compound 387] , name the class its IC50 places it in.
Result string: middle bracket

Query string: Given CNc1nc(N2CC3(CCC(Nc4ccc5oc(=O)[nH]c5c4)C3)C2)c2cc(CC(F)(F)F)sc2n1 (stereo not shown) [Compound 401] , name the class its IC50 places it in.
Result string: high bracket

Query string: Given FC(F)(F)Cc1cc2c(N3CCC4(CC(Nc5cccc(Cl)c5)C4)C3)ncnc2s1 (mixture of isomers) [Compound 160] , name the class its IC50 places it in.
Result string: middle bracket

Query string: Given CNc1nc(N2CCC3(CC(Nc4ccc5c(c4)oc(=O)n5CCN4CCN(S(C)(=O)=O)CC4)C3)C2)c2cc(CC(F)(F)F)sc2n1 (mixture of isomers) [Compound 250] , name the class its IC50 places it in.
Result string: middle bracket

Query string: Given Cc1ccccc1NC1CC2(CCN(c3ncnc4sc(CC(F)(F)F)cc34)C2)C1 (mixture of isomers) [Compound 165] , name the class its IC50 places it in.
Result string: high bracket

Query string: Given CN1CCC(c2cc(NC3CC4(CCN(c5ncnc6sc(CC(F)(F)F)cc56)C4)C3)ccc2C(=O)N2CCOCC2)CC1 (single isomer, unassigned) [Compound 233] , name the class its IC50 places it in.
Result string: middle bracket

Query string: Given CNC(=O)c1ccc(NC2CC3(CCN(c4ncnc5sc(CC(F)(F)F)cc45)C3)C2)cn1 (single isomer, unassigned) [Compound 217] , name the class its IC50 places it in.
Result string: low bracket
